tested on: Staph. hyicus; test: MIC by serial dilution on iso-sensitest agar, Staph. hyicus; assay type: cell-based; settings: Staphylococcus hyicus, 20 h, strain 9637, actual clinical isolate; 37° C., about 20 hours
Collected MIC values appear next to each entry.

- molecule: "CCC(C)C(=O)C(=O)NCCc1c[nH]c2ccccc12 (centres unmarked) [A, reference compound]"
  unitAnnotation: "µg/mL"
  MIC: 0.25
- molecule: "CC(C)CC(=O)C(=O)NCCc1cn(-c2ccccc2)c2ccccc12"
  unitAnnotation: "µg/mL"
  MIC: 0.06
- molecule: "CC(C)CC(=O)C(=O)NCCc1cn(C(C)C)c2ccccc12"
  unitAnnotation: "µg/mL"
  MIC: 0.125
- molecule: "CCC(C)C(=O)C(=O)NCCc1cn(C(C)C)c2ccccc12 (centres unmarked)"
  unitAnnotation: "µg/mL"
  MIC: 0.03
- molecule: "CC(C)CC(=O)C(=O)NCCc1c[nH]c2ccccc12 [B, reference compound]"
  unitAnnotation: "µg/mL"
  MIC: 0.25
